# Tested on: Sam68 (KHDRBS1)
# ASSAY NAME: Sam68 small-molecule binders, primary screen, biochemical, small-molecule microarray, 635 nm fluorescence (AID 1125);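 note: score merges 667 nm channel intensity with signal to noise over triplicate slides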
# TEST CONDITIONS: small-molecule microarray binding, higher = more signal
REPORTED PROPERTY: composite z-score

molecule="COc1cc(C(O)C2C=CC3C(=O)N(c4ccccc4)C(=O)C3N2Nc2ccc(C#N)cc2)cc(OC)c1OC (configuration not stated)" reported_property="composite z-score" value_reported=1.32
molecule=CCOC(=O)C[C@H]1[C@H](OC(=O)c2ccccc2-c2ccccc2)[C@@H](NC(=O)c2ccc3ccccc3c2)c2cc(OCCCO)ccc2N1C(=O)c1ccc2ccccc2n1 reported_property="composite z-score" value_reported=0.744
molecule=COCCOC(=O)N1C(=O)[C@@]2(c3cc(C#CCCO)ccc31)[C@H](c1ccc(O)cc1)N1[C@H](c3ccccc3)[C@H](c3ccccc3)OC(=O)[C@H]1[C@@H]2C(N)=O reported_property="composite z-score" value_reported=0.761
molecule="C=CC[C@@]1(C(=O)NCC(O)CO)N=C(c2ccc(OCCCO)cc2)O[C@@H]1c1ccccc1N=[N+]=[N-] (some centres not stated)" reported_property="composite z-score" value_reported=0.931
molecule=COCCOC(=O)N1C(=O)[C@@]2(c3cc(C#Cc4ccc(OC)cc4)ccc31)[C@H](C(=O)N1CCN(c3ncccn3)CC1)[C@H]1C(=O)O[C@H](c3ccccc3)[C@H](c3ccccc3)N1[C@@H]2c1ccc(O)cc1 reported_property="composite z-score" value_reported=0.634
molecule=Cc1ccc(S[C@]2(C(=O)NCC(C)C)CC(=O)N(Cc3ccccc3)[C@@H]2c2ccc(CO)cc2I)cc1 reported_property="composite z-score" value_reported=1.18
molecule=C=CC[C@@]1(C(=O)O)N=C(c2ccc(OCCCO)cc2)O[C@@H]1c1ccccc1N=[N+]=[N-] reported_property="composite z-score" value_reported=1.09

---

# ASSAY NAME: splicing luciferase reporter signal modulators, primary screen, spliceosome inhibition project, cell-based, HEK293, splice +/- reporter (AID 1101);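 note: HEK293 cells carrying a splicing-competent luciferase reporter gene; test concentration not given here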
# TEST CONDITIONS: luminescence, 24 h, higher = more signal, called active from +8 up or from −8 down
Calls of active or inactive are those of the source.
REPORTED PROPERTY: z-score

molecule=[N-]=[N+]=NCc1ccccc1C[C@@]1(C(=O)N2CCOCC2)N=C(c2ccc(OCCCO)cc2)O[C@@H]1c1ccccc1CN=[N+]=[N-] value_reported="-0.429 (inactive)"
molecule=C=CC[C@]1(C(=O)N2CCOCC2)N=C(c2ccc(OCCCO)cc2)O[C@H]1c1ccccc1 value_reported="-0.0214 (inactive)"
molecule=COC(=O)[C@@]1(Cc2ccccc2)[C@H]2c3cc(C(=O)N4CCCC4)n(C)c3C[C@H]2CN1C(=O)c1ccccc1 value_reported="-1.91 (inactive)"
molecule=COCCOC(=O)N1C(=O)[C@@]2(c3cc(C#CCNC(N)=O)ccc31)[C@H](c1ccc(O)cc1)N1[C@H](c3ccccc3)[C@H](c3ccccc3)OC(=O)[C@H]1[C@@H]2C(=O)NC[C@H](O)c1ccccc1 value_reported="0.716 (inactive)"
molecule=COc1ccccc1CN1C(=O)c2ccccc2[C@@H](C(=O)NCCN2CCOCC2)[C@@H]1c1ccc(CO)cc1 value_reported="-0.468 (inactive)"
molecule=O=C(O)[C@@]1(Cc2ccccc2)N=C(c2ccc(OCCCO)cc2)O[C@H]1c1ccccc1 value_reported="-0.674 (inactive)"
molecule=O=C(CCN1CCOCC1)c1cccc(O)c1 value_reported="0.964 (inactive)"
molecule="CC(C)=CCCC(C)=CC(O)C1C=CC2C(=O)N(c3ccccc3)C(=O)C2N1Nc1ccccc1 (stereo not given)" value_reported="1.18 (inactive)"
molecule=C=CCOC(=O)[C@H]1[C@@H]2C(=O)O[C@@H](c3ccccc3)[C@@H](c3ccccc3)N2[C@@H](c2ccc(OCCOC(=O)[C@@H]3C[C@@H]4C(=O)N5CCC[C@H]5C(=O)N4[C@@H]3c3ccc(O)cc3)cc2)[C@]12C(=O)Nc1ccccc12 value_reported="0.109 (inactive)"
molecule="CCCCCN1CC=CC23O[C@@H]4/C=C\\CCC(C)OC(=O)C4[C@H]2C(=O)N(CCCCCO)[C@@H]3C1=O (stereo not given in full)" value_reported="-0.228 (inactive)"
molecule=COC(=O)[C@@]1(Cc2ccccc2)[C@H]2c3cc(C(=O)N(C)C)n(Cc4c(-c5ccccc5)noc4C)c3C[C@H]2CN1C(=O)c1ccccc1 value_reported="0.762 (inactive)"
molecule=CC(C)N1C(=O)[C@@]2(c3ccc([N+](=O)[O-])cc3)CC(=O)N(CC34CC5CC(CC(C5)C3)C4)[C@@H]2c2ccc(CO)cc21 value_reported="0.477 (inactive)"
molecule=O=C1N(CCS(=O)(=O)c2ccccc2)Cc2ccccc2[C@H]2OC(c3ccc(OCCCO)cc3)=N[C@@]12CCS(=O)(=O)c1ccccc1 value_reported="-0.872 (inactive)"
molecule=CCCC[C@@H]1C[C@H]1[C@@H](NC(=O)c1ccc(-c2ccccc2)cc1)c1ccc(-c2ccccc2)cc1 value_reported="-2.88 (inactive)"
molecule=Cc1c(NC(=O)CC#N)c(=O)n(-c2ccccc2)n1C value_reported="0.933 (inactive)"
